PROTOCOL_DESCRIPTION: CHOP2 Reporter Counterscreen Assay for Inhibitors of Ubiquitin-specific Protease USP2a;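 also: activated enterokinase alone at 50 pM in a cell-free format rather than USP2a or CHOP2; nearly all actives have a fitted effect of over 55% in size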
EXPERIMENTAL_CONTEXT: purified enterokinase, fluorogenic substrate, 485/531 nm; series mostly up to 38.3 µM
Results filed as inconclusive are left out. Active and inactive are the calls of the source. Calls follow the shape of the dose curve; as a rule, active = well fitted inhibition curve with a large enough effect; inconclusive = small, poorly fitted or top-dose-only effect; inactive = flat fitted curve, though single readings scatter.
Classes used: YES = active, NO = inactive

1) CC(C)(C)c1cc(Br)ccc1OCC(=O)Nc1ncn[nH]1 : NO
2) N=C1/C(=C\c2ccc(-c3cccc(Cl)c3)o2)C(=O)N=C2SC=C(c3ccccc3)N12 : NO
3) CC(CN1CCCCC1)OC(=O)c1ccc(Cl)cc1 (stereo not given) : NO
4) O=C(Nc1ccc(N2CCCC2)cc1)c1cccc(-c2cc3ccccc3oc2=O)c1 : NO
5) CCCOc1ccc(-c2nc(C#N)c(N3CCN(CC)CC3)o2)cc1 : NO
6) CSc1ncccc1C(=O)OCC(=O)N1CCOCC1 : NO
7) C=CC#CC[N+]1(CC#Cc2ccccc2)CCOCC1 : YES
8) COc1cc(/C=N/NC(=O)c2cc(-c3ccccc3)nc3ccccc23)ccc1O : NO
9) Nc1ccccc1S(=O)(=O)NC1=NCCCCC1 : NO
10) O=C(O)C1CCN1C1CCCCC1 (stereo not given) : NO
11) NS(=O)(=O)c1ccc(NC(=O)/C=C/c2cn(-c3ccccc3)nc2-c2cccc(Cl)c2)cc1 : NO
12) Cc1c(C(=O)Nc2ccc3c4c(cccc24)CC3)cccc1[N+](=O)[O-] : NO
13) CCNC(=S)N/N=C/c1cn(Cc2ccc(F)cc2)c2ccccc12 : NO
14) COc1ccc(S(=O)(=O)NCCSCc2ccco2)cc1OC : YES
15) Cc1cc(C)n(C(=O)c2cccc(S(=O)(=O)N3CCCC3)c2)n1 : NO
16) COc1ccc(C(=O)OCC(=O)c2c[nH]c3ccccc23)c(OC)c1 : NO
17) CC(=O)Nc1ccc(NC(=O)[C@@H](NC(=O)c2cccc(C)c2)C(C)C)cc1 : NO
18) Cc1cccc2c1N(CCCOc1ccc(C(C)(C)C)cc1)C(=O)C2=O : NO
19) O=C1CC(Nc2ccc(N3CCOCC3)cc2)C(=O)N1c1cccc(C(F)(F)F)c1 (stereo not given) : NO
20) Oc1ccccc1/C=N/Nc1ncc(Br)cn1 : NO
21) Fc1ccc(-c2nnn(Cc3nc4ccccc4s3)n2)cc1 : NO
22) O=C(COC(=O)/C=C/c1ccc(Cl)cc1)NC1CC1 : NO
23) CCN(CC(=O)Nc1ccc(NC(C)=O)cc1)C(=O)c1ccc(N2CCC(C)CC2)c([N+](=O)[O-])c1 : NO
24) COc1cc(/C=C/C(=O)OCC(=O)NC(=O)NCc2ccco2)ccc1OC(F)F : NO
25) O=C(Nc1ccccc1)Nc1snnc1C(=O)Nc1cccc(O)c1 : NO
26) CN1CCN(CCCCOc2ccc(F)cc2)CC1 : NO
27) CC1=NN(c2ccc(C)cc2)C(=O)/C1=C/c1ccc(-c2cc([N+](=O)[O-])ccc2O)o1 : YES
28) CCN1C(=O)CSc2ccc(C(=O)NC3CCCCC3)cc21 : NO
29) O=c1/c(=C/c2ccco2)sc2n1CN(c1cccc(Br)c1)CN=2 : NO
30) CC1(C)CC(=O)C2=C(C1)NCN(CCCN1CCOCC1)C2 : NO
31) COCCN1Cc2cccc(C(=O)N3CCN(c4cc(C)ccc4C)CC3)c2C1=O : NO
32) O=C(Nc1ccc2nc(-c3ccco3)c(-c3ccco3)nc2c1)N1CCN(c2ccccn2)CC1 : YES
33) CCn1c(=O)c(C(=O)Nc2ccccc2S(N)(=O)=O)c(O)c2ccccc21 : YES
34) COc1ccc(-c2csc(Nc3ccc(S(=O)(=O)Nc4cc(OC)nc(OC)n4)cc3)n2)cc1 : NO
35) CC(C)CC(=O)Nc1cccc(-c2nc3ccccc3o2)c1 : NO
36) Cc1ccc(S(=O)(=O)Nc2ccc(N3CCOCC3)cc2)cc1 : NO
37) CCNc1sc(C(=O)c2cccs2)c(N)c1-c1nc2ccccc2s1 : NO
38) COc1ccc(-n2c(O)c(/C=N/n3cnnc3)c3ccccc3c2=O)cc1 : NO
39) CCC(C)(C)n1nnnc1C(c1ccc(C)cc1)N1CCCC1 (stereo not given) : NO
40) COc1ccccc1C(=O)N1CCN=C1SC : NO
41) Cc1cc2c(c(=O)n1CC1CCCO1)C(c1ccco1)C(C#N)=C(N)O2 (stereo not given) : NO
42) CC(C)(C)[C@H]1COC(=O)[C@@H](Cc2ccc(F)cc2)C/C=C\C[C@@H](CC(=O)N[C@H](CO)Cc2ccccc2)C(=O)N1 : NO
43) O=C(Nc1nnc(-c2ccco2)s1)C1CCCCC1 : NO
44) CCCNC(=O)NCc1ccc(N2CCCC2=O)cc1 : NO
45) Cc1ccc(C)n1NC(=O)c1ccccc1O : NO

---

PROTOCOL_DESCRIPTION: CHOP2 Reporter Counterscreen Assay for Inhibitors of Ubiquitin-specific Protease USP2a;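 also: activated enterokinase alone at 50 pM in a cell-free format rather than USP2a or CHOP2; nearly all actives have a fitted effect of over 55% in size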
EXPERIMENTAL_CONTEXT: purified enterokinase, fluorogenic substrate, 485/531 nm; series mostly up to 38.3 µM
Records with an inconclusive call do not appear. The source made the active and inactive calls. Calls follow the shape of the dose curve; as a rule, active = well fitted inhibition curve with a large enough effect; inconclusive = small, poorly fitted or top-dose-only effect; inactive = flat fitted curve, though single readings scatter.
Classes used: active, inactive

1. O=C(NCCC1=CCCCC1)C1CCCN(S(=O)(=O)c2cnc[nH]2)C1 (stereo not drawn) : inactive
2. CC1=NN(C(=O)c2csc(C)c2C)C(O)(C(F)(F)F)C1 (stereo not drawn) : inactive
3. COc1ccc(NC(=O)CSc2nc3sc(C)cc3c(=O)n2C)c(OC)c1 : inactive
4. C#CCOCCOCCOCCNc1nc(N2CCN(C(=O)CCCCCCCCCCNC(=O)[C@@H](CCC(=O)O)n3cc(CCCCCN)nn3)CC2)nc(N2CCN(C(=O)CCCCCCCCCCNC(=O)[C@H](CCCCN)n3cc(C[C@@H](C)CC)nn3)CC2)n1 : active
5. Cc1cccc(NCc2nc(-c3ccccc3)no2)c1 : inactive
6. Cc1cc(NC(=O)c2cccc(S(=O)(=O)N(C)C)c2)n(-c2ccccn2)n1 : inactive
7. CCC1SC2=NC(C)=C(C(=O)OCCOC)C(c3ccc(C(=O)OC)cc3)N2C1=O (stereo not drawn) : inactive
8. C[C@H](CO)N1C[C@H](C)[C@@H](CN(C)S(=O)(=O)c2cn(C)cn2)Oc2ccc(NC(=O)Cn3cnnn3)cc2C1=O : inactive

---

PROTOCOL_DESCRIPTION: CHOP2 Reporter Counterscreen Assay for Inhibitors of Ubiquitin-specific Protease USP2a;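 also: activated enterokinase alone at 50 pM in a cell-free format rather than USP2a or CHOP2; nearly all actives have a fitted effect of over 55% in size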
EXPERIMENTAL_CONTEXT: purified enterokinase, fluorogenic substrate, 485/531 nm; series mostly up to 38.3 µM
Records with an inconclusive call do not appear. The source made the active and inactive calls. The call rests on the fitted dose curve; in most records, active means well fitted inhibition curve with a large enough effect; inconclusive means small, poorly fitted or top-dose-only effect; inactive means flat fitted curve, though single readings scatter.
Outcomes: active, inactive

1) CC(C)(C)NC(=O)CSc1nc(O)cc(=O)n1-c1ccccc1F : inactive
2) CCN(C[C@H]1N[C@@](CC)(C(=O)OC)[C@H]2C(=O)N(Cc3ccccc3)C(=O)[C@@H]12)C(=O)Nc1ccc(C)cc1 : inactive
3) CC(=O)Nc1cc[n+](CC(=O)c2ccc(Cl)cc2)cc1 : inactive
4) COC(=O)C1Sc2[nH]c(=O)sc2C(c2ccc(Cl)cc2)C1C(=O)OC (stereo unspecified) : inactive
5) O=C(N/N=C/C=C/c1ccccc1)c1ccncc1 : inactive
6) COc1cccc(NC(=O)Cc2ccccc2)c1 : inactive
7) CCCCC(OC(=O)c1cc2occc2n1C)C(=O)NCC1CCCO1 (stereo unspecified) : inactive
8) COc1ccc(CCn2c(O)cc3nn(-c4nc5ccccc5s4)c(=O)c-3c2C)cc1 : active
9) COc1ccc(C(=O)CSc2nnc(-c3ccco3)c(-c3ccco3)n2)cc1 : active
10) O=C(NC1CCCC1)C1C2C=CC(C2)C1C(=O)N1CCOCC1 (stereo unspecified) : inactive
11) Cc1ccc(C(=O)NCc2ccc3c(c2)OCO3)cc1N1CCCC1=O : inactive

---

PROTOCOL_DESCRIPTION: CHOP2 Reporter Counterscreen Assay for Inhibitors of Ubiquitin-specific Protease USP2a;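 also: activated enterokinase alone at 50 pM in a cell-free format rather than USP2a or CHOP2; nearly all actives have a fitted effect of over 55% in size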
EXPERIMENTAL_CONTEXT: purified enterokinase, fluorogenic substrate, 485/531 nm; series mostly up to 38.3 µM
Protocol: NIH Molecular Libraries Probe Centers Network [MLPCN] NIH Chemical Genomics Center [NCGC] MLPCN Grant: XO1-MH079852-01 PI Name: Nicholson, Ben. […] The assay gives a fluorescent read-out at excitation/emission wavelengths of 485/531. […] NCGC Assay Protocol: The assay buffer, prepared fresh at the day of the assay, contains 20mM Tris-HCl pH 8.0, 2mM CaCl2, 2mM beta-Mercaptoethanol, 0.05% CHAPS. […] The time zero reading was used to flag fluorescence artifacts.
Records with an inconclusive call do not appear. Active and inactive are the calls of the source. Calls come from the whole dose curve; as a rule, active = well fitted inhibition curve with a large enough effect; inconclusive = small, poorly fitted or top-dose-only effect; inactive = flat fitted curve, though single readings scatter.
Outcomes: active, inactive

1. CCOC(=O)c1[nH]c2ccc(OC)cc2c1NC(=O)CCN1CCCC(C)C1 (configuration not stated) : inactive
2. Cc1ccc(NC(=O)Cn2nc(C)c3ccccc3c2=O)cc1F : inactive
3. Cc1ccc(C(=O)C(=S)N2CCOCC2)cc1 : inactive
4. Cn1nnnc1Sc1ncnc2scc(-c3ccc4c(c3)OCO4)c12 : inactive
5. Cc1ccc2c(c1)c1c3n2CCN(C(=O)Cn2c(-c4ccccc4)noc2=O)C3CCC1 (configuration not stated) : inactive
6. CN(C)c1cccc(C(=O)NNC(=O)C23CC4CC(CC(C4)C2)C3)c1 : inactive
7. Cc1ccc(/C=C2/SC(=S)N(c3ccc(S(=O)(=O)Nc4nccs4)cc3)C2=O)cc1 : active
8. COCc1cc(C)nc(OCC(=O)N/N=C\c2cc(C)n(-c3cccc(C(F)(F)F)c3)c2C)c1C#N : inactive
9. CCC(CO)Nc1nc(CN2CCCCC2)nc2scc(-c3ccccc3)c12 (configuration not stated) : inactive
10. O=C(Nc1ccc(C2=NCCN2)cc1)c1ccc(C(=O)Nc2ccc(C3=NCCN3)cc2)c([N+](=O)[O-])c1 : active
11. CC1=CC(C)(C)N(C(=O)c2ccccc2)c2ccccc21 : inactive
12. O=[N+]([O-])/C(C(Cl)=C(Cl)Cl)=C(\Sc1ccccc1)N1CCCCC1 : inactive
13. CCCCNc1nc2ccccc2nc1NS(=O)(=O)c1cccs1 : inactive
14. CN1CCN(S(=O)(=O)c2ccc(N3CCN(S(=O)(=O)/C=C/c4ccccc4)CC3)nc2)CC1 : inactive
15. CCOC(=O)C1=CN(Cc2cccc(F)c2)S(=O)(=O)NC1c1ccc(Br)cc1F (configuration not stated) : inactive
16. Cc1ccc(C(=O)NCCNS(=O)(=O)c2ccccc2)cc1 : inactive
17. Cc1cc(NC(=O)CN2C(=O)NC3(CCCCC3C)C2=O)no1 (configuration not stated) : inactive
18. Cc1ccc2[nH]c(=O)c(COC(=O)c3ccccn3)cc2c1 : inactive
19. CC(C)(C)OC(=O)C[C@H]1C/C=C\C[C@H](CC(=O)N(CCO)Cc2ccccc2)C(=O)NC[C@H](c2ccccc2)OC1=O : inactive
20. FC(F)Sc1ccc(NC(=S)NC2CCCCC2)cc1 : inactive
21. O=C(/C=C1\NC2(CCCC2)Cc2ccccc21)C(=O)N/N=C/c1ccc(O)c(O)c1 : active
22. Cc1[nH]c2ccccc2c1C(c1ccccn1)c1c(C)[nH]c2ccccc12 : inactive
23. O=C(c1ccc(CS(=O)(=O)c2ccc(Br)cc2)o1)N1CCCC1 : inactive
24. O=C(Nc1cccc(S(=O)(=O)N2CCCC2)c1)c1cncc(Br)c1 : inactive
25. COc1ccc(CN(Cc2cc3cc(C)ccc3[nH]c2=O)C(=O)N(C)C)cc1 : inactive
26. O=C(CN1CCOCC1)Nc1ccc(C2CCCCC2)cc1 : inactive
27. COC(=O)C1CCN(C(=O)COC(=O)CC(NC(N)=O)c2ccc(Cl)cc2)CC1 (configuration not stated) : inactive
28. CCCC(=O)Nc1ccc(N2CCN(C(=O)c3cc4ccccc4o3)CC2)cc1 : inactive
29. O=C(N/N=C/c1ccc(-c2ccc(S(=O)(=O)Nc3ncccn3)cc2)o1)c1cc2ccccc2cc1O : active
30. COC(=O)c1ccc(NC(=O)CSC2=Nc3ccccc3C3CC=NN23)cc1 (configuration not stated) : inactive
31. Cc1c(NC(=O)C2CCCN(S(=O)(=O)c3cnc[nH]3)C2)c(=O)n(-c2ccccc2)n1C (configuration not stated) : inactive
32. CCN1C(=O)C(NC(C)=O)c2cc(OC)ccc21 (configuration not stated) : inactive
33. Cc1noc(/C=C/NCc2cccnc2)c1S(=O)(=O)N(C)CC(=O)N1CCc2ccccc21 : inactive
34. CC(=O)Nc1ccc(Nc2cc(C)nc(Nc3ccc(NC(C)=O)cc3)n2)cc1 : inactive
35. O=C(Nn1c(SCc2ccc([N+](=O)[O-])cc2)nc2ccccc2c1=O)c1ccc(F)cc1 : inactive
36. c1coc(CNC2CCCCCCC2)c1 : inactive
37. CCCn1c(NC(=O)c2ccc(Br)cc2)nc2ccccc21 : inactive
38. CCn1c(COc2ccc(C)cc2)nnc1SCC(=O)Nc1ccc2c(c1)OCCO2 : inactive
39. Cc1cccc(Nc2nc(NCc3ccco3)c3ccccc3n2)c1 : inactive
40. FC(F)(F)C1=Nc2cccc3cccc(c23)N1 : inactive
41. C/C(=N/NC(=O)c1cc2ccccc2cc1O)C1C(=O)c2ccccc2C1=O : inactive
42. COc1ccc(CCN2CC(C#N)=C3c4cc(OC)c(OC)cc4CCN3C2)cc1OC : inactive
